- target: T1, Peptide F (monkey PAR-2), N-terminal biotinylated (Monkey (Macaca mulatta), N-terminal biotin via G4S linker)
- T1 construct: also called Peptide F N-Term
- T1 sequence (peptide, as listed by the source): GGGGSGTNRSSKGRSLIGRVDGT
- procedureText: peptide ELISA titration
Reported EC50 is given for each of the following binders.
assayEndpoint: EC50

INSERT INTO results (binder, assayendpoint, val) VALUES
  ('H4H585P (antibody, human IgG4, V domains shown, also called H1H585P variable regions) VH: QVQLVESGGGVVQPGRSLRLSCVASGFTFSRYGMHWVRQAPGKGLEWLIVISYDGINKYYADSVKGRFTISRDNSKNTVYLQMNSLRAEDTAVYYCAKGDFWSGYFDYWGQGTLVTVSS VL: DIVMTQTPLSSPVTLGQPASISCRSSQSLVHSDGNTYLSWLHQRPGQPPRLLIYKISNRFSGVPDRFSGSGAGTDFTLQISRVEAEDVGIYYCMQGTQFPTFGGGTKVEIK', 'EC50', '0.017 nM'),
  ('H4H591N (antibody, human IgG4, V domains shown, also called H2M591N variable regions) VH: EVQLLESGGGLVQPGGSLRLSCATSGFTFSRYTMTWVRQAPGKGLFWVSGIGGSGGRAYYADSVKGRFTLSRDNSKNTLYLQMNSLRAEDTAVYYCAKEGDSGYDLDYWGRGTLVTVSS VL: DIQMTQYPSSLSASVGDRVTITCRARQGISNYLAWLQQKPGKAPKSLIYAASSLQRGVPSKFSGSGSGTDFTLTISSLQPEDSATYYCQQYKISPLTFGGGTKVEIK', 'EC50', '0.011 nM'),
  ('H4H588N (antibody, human IgG4, V domains shown, also called H2M588N variable regions) VH: EVQLLESGGGLVQPGGSLRLSCAASGFTFSSYAMTWVRQAPGKGLYWVSAISGGRGSAYYADSVKGRFTISRDNSKNTLYLQMNSLRAEDTAVYYCAKEGDSGYDLAYWGRGTLVTVSS VL: DIQMTQSPSSLSASVGDRVTITCRARQGISNNLAWLQQKPGKAPKSLIYAASSLQSGIPSKFSGSGSGTYFTLTISSLQPEDFATYYCQQYKSSPLTFGGGTKVEIK', 'EC50', '0.012 nM');
